assay.notes: qHTS RealTime-Glo MT Cell Viability Assay in HEK293 cells - 0 hour (AID 1224880); note: nearly all actives have a fitted effect of over 45% in size
test.settings: RealTime-Glo luminescence; series mostly up to 76.8 µM
Inconclusive results are not listed. Calls of active or inactive are those of the source. Calls come from the whole dose curve; as a rule, active = well fitted cell-killing curve with a large enough effect in the repeat runs; inconclusive = weak or mixed curves, or effect the other way; inactive = flat fitted curve, though single readings scatter.
Outcomes: 1 (active), 0 (inactive)

molecule	assigned.class
Nc1c2ccccc2nc2ccccc12	0
Clc1ccc2nsnc2c1NC1=NCCN1	0
CCC(Cl)C(Cl)C(Cl)CC(Cl)C(Cl)C(C)Cl (configuration not stated)	0
NC(=O)NS(=O)(=O)c1ccc(N)cc1	0
Clc1ccccc1C(c1ccccc1)(c1ccccc1)n1ccnc1	0
COc1ccc(CN2CCN(C(c3ccc(F)cc3)c3ccc(F)cc3)CC2)c(OC)c1OC	0
O=C(N/N=C/c1ccccc1O)c1ccncc1	0
CC(=O)S[C@@H]1CC2=CC(=O)CC[C@]2(C)[C@H]2CC[C@@]3(C)[C@@H](CC[C@@]34CCC(=O)O4)[C@H]12	0
NNC(=O)c1cccc(C(=O)NN)c1	0
OCCCCCCCCCCCCBr	0
CCCCCCC[N+](CC)(CC)CCCCc1ccc(Cl)cc1	0
CCCCC(CC)COP(=O)(O)OCC(CC)CCCC (configuration not stated)	0
Oc1ccc2c(c1)-c1ccccc1C2	0
CC(C)(C)CC(C)(C)c1ccc(O)c(Cc2ccc(Cl)cc2Cl)c1	0
CCCC(C)c1ccccc1O (configuration not stated)	0
COc1cccc(N)c1	0
O=C(Oc1ccccc1)c1ccccc1C(=O)Oc1ccccc1	0
Clc1ccc(C(Cn2ccnc2)OCc2ccc(Sc3ccccc3)cc2)c(Cl)c1 (configuration not stated)	0
Cc1cc2c(cc1C(F)(F)F)N(C(=O)Nc1ccc(Oc3cccnc3C)nc1)CC2	0
Cc1cc(=O)oc2cc(N(C)C)ccc12	0
CCOC(=O)c1nc(C(Cl)(Cl)Cl)n(-c2ccc(Cl)cc2Cl)n1	0
NC(=O)C1(N2CCCCC2)CCN(CCCN2c3ccccc3CCc3ccc(Cl)cc32)CC1	0
CCCCCOC(=O)CCCC	0
CC(C)OC(=O)c1cc2c(OCC(O)CNC(C)(C)C)cccc2[nH]1 (configuration not stated)	0
CCC(C)(C)C1CCCCC1OC(C)=O (configuration not stated)	0
O=C(Nc1cccc(Cl)c1)OCC#CCCl	0
CCC(C)Nc1ccc(NC(C)CC)cc1 (configuration not stated)	1

----------
experimental.system: Nuclear receptor subfamily 1 group I member 3 (Homo sapiens) (UniProt Q14994)
Sequence (Q14994 whole entry, looked up): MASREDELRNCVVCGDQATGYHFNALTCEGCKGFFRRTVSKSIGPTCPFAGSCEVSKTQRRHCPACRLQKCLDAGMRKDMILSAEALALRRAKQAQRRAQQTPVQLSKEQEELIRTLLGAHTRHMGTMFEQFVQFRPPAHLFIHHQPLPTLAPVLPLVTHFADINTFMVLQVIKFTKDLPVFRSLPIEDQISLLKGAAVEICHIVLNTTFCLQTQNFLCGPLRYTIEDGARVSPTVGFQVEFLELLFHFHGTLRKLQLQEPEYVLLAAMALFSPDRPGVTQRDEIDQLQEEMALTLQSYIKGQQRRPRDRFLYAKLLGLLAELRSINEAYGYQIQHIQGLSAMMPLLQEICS
assay.notes: qHTS assay to identify small molecule antagonists of the constitutive androstane receptor (CAR) signaling pathway (AID 1224838);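 note: HepG2 cells stably expressing hCAR with CYP2B6 luciferase reporter stimulated by CITCO; nearly all actives have a fitted effect of over 40% in size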
test.settings: HepG2-CYP2B6-hCAR luciferase, CITCO-stimulated, 24 h; series mostly up to 92.4 µM
Records with an inconclusive call do not appear. Calls of active or inactive are those of the source. Calls come from the whole dose curve; as a rule, active = well fitted inhibition curve with a large enough effect in the repeat runs; inconclusive = weak or mixed curves, or effect the other way; inactive = no such curve, though single readings can be large or run the other way.
Outcomes: active, inactive

compound.string	assigned.class
COc1cc(-c2ccc(N=C=O)c(OC)c2)ccc1N=C=O	inactive
CCN1/C(=C/C=C/c2sc3ccccc3[n+]2CC)Sc2ccccc21	active
O=c1[nH]cnc2nc[nH]c12	inactive
Cc1cc(O)c(Cl)c(C)c1Cl	inactive
CS(=O)(=O)CCNCc1ccc(-c2ccc3ncnc(Nc4ccc(OCc5cccc(F)c5)c(Cl)c4)c3c2)o1	inactive
Oc1ccc(N=Nc2ccccc2)cc1	inactive
CCc1cc(Cc2cc(CC)c(N)c(CC)c2)cc(CC)c1N	inactive
CCCCCCCCOC(=O)c1ccc(O)cc1	inactive
COCCCC/C(=N\OCCN)c1ccc(C(F)(F)F)cc1	inactive
O=[N+]([O-])c1ccccc1Nc1ccccc1	inactive
COc1cccc2c1C(=O)c1c(O)c3c(c(O)c1C2=O)C[C@@](O)(C(=O)CO)C[C@@H]3O[C@H]1C[C@H](N)[C@H](O[C@@H]2CCCCO2)[C@H](C)O1	active
